Source listed as ChEMBL document CHEMBL4725332.

- Tested system: Protein deacetylase HDAC6 (Homo sapiens)
- Sequence (Q9UBN7 whole entry): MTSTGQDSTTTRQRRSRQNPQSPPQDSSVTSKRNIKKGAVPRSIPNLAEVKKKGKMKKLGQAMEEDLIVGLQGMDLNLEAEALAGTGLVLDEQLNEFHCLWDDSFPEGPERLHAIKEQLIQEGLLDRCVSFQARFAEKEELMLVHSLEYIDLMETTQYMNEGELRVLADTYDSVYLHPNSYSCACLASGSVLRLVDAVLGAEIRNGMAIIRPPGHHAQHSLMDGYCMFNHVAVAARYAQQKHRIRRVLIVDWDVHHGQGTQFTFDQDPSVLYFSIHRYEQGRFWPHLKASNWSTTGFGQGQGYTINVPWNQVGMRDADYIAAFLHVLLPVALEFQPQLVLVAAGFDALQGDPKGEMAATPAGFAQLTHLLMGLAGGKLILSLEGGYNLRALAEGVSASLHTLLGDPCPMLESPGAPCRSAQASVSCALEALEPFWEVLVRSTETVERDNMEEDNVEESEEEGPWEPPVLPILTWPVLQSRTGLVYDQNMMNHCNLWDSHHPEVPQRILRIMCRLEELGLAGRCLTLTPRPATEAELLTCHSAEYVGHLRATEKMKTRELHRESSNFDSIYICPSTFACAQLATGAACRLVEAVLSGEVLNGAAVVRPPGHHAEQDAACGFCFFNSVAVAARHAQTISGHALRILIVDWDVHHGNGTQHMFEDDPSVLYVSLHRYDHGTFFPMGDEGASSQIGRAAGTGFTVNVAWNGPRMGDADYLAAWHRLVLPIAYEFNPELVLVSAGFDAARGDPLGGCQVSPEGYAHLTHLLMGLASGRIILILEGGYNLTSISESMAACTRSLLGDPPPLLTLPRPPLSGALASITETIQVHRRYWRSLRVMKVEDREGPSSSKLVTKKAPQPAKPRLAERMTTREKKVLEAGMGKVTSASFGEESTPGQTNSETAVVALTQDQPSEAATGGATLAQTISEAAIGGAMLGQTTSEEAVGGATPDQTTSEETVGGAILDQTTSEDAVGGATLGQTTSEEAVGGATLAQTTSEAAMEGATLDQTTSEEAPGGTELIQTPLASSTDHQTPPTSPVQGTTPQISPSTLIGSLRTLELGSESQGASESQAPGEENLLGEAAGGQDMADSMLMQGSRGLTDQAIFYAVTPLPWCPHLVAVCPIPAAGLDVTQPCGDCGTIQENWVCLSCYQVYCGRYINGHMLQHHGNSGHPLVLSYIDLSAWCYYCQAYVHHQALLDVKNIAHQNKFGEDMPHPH
- Test name: Inhibition of human recombinant HDAC6 expressed in baculovirus infected High5 insect cells using Boc-Lys(eacety1)-AMC as substrate incubated for 3 hrs measured after 30 mins by microplate reader based spectrophotometric analysis
- Set-up: species or system BTI-TN-5B1-4
Recorded IC50, one value per entry.
Kindly provide the numeric value in µM only, without the unit symbol.

>>> df
                                smiles_repr  quantity  experimental_value
0  CC[N+]1=C(/C=C/C2=C3Oc4cc(O)cc(OCCCCCCCC(=O)O)c4C=C3CCC2)C(C)(C)c2ccccc21.[I-]      IC50                13.8

With those in mind, consider the next molecule.
Kindly indicate its recorded IC50. Item: CC[N+]1=C(/C=C/C2=C3Oc4cc(O)cc(OCCCCCCCC(=O)NO)c4C=C3CCC2)C(C)(C)c2ccccc21.[I-]
0.19

###

- Tested on: HeLa
- Test name: Antiproliferation activity against human Hela cells assessed as reduction in cell viability incubated for 72 hrs by MTT assay
- Type: functional, cell-based
Quantity: pIC50
The value called pIC50 is obtained by taking minus log10 of the concentration in mol/L.

# return recorded pIC50 for entry CC[N+]1=C(/C=C/C2=C3Oc4cc(O)cc(OCCCCCCCC(=O)NO)c4C=C3CCC2)C(C)(C)c2ccccc21.[I-]
5.23

###

- Tested system: Histone deacetylase 3 (Homo sapiens)
- Sequence (O15379 whole entry): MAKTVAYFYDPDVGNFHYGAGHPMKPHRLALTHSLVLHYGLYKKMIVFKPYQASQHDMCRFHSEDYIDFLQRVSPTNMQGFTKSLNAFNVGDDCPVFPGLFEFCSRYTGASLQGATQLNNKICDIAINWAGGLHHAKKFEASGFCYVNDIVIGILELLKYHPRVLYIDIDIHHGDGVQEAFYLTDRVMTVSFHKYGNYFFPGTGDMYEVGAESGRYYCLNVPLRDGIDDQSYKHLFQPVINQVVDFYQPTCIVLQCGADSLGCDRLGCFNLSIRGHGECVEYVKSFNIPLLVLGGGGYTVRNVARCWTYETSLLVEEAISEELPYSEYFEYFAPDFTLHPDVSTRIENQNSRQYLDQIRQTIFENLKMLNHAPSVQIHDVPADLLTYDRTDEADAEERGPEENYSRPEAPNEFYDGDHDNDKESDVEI
- Test name: Inhibition of human recombinant HDAC3 expressed in baculovirus infected High5 insect cells using Ac-Lys-Tyr-Lys(e-acetyl)-AMC as substrate incubated for 24 hrs measured after 30 mins by microplate reader based spectrophotometric analysis
Below is a list of entries, each paired with its recorded pIC50 value.
Scale explanation: pIC50 corresponds to minus log10 of a concentration expressed in moles per litre.

>>> print(df.to_string())
                                smiles_repr  experimental_value
0  CC[N+]1=C(/C=C/C2=C3Oc4cc(O)cc(OCCCCCCCC(=O)O)c4C=C3CCC2)C(C)(C)c2ccccc21.[I-]                4.96

With those in mind, consider the next compound.
Give the reported pIC50 for this compound. CC[N+]1=C(/C=C/C2=C3Oc4cc(O)cc(OCCCCCCCC(=O)NO)c4C=C3CCC2)C(C)(C)c2ccccc21.[I-]
6.24

###

- Tested system: Histone deacetylase 1 (Homo sapiens)
- Sequence (Q13547 whole entry): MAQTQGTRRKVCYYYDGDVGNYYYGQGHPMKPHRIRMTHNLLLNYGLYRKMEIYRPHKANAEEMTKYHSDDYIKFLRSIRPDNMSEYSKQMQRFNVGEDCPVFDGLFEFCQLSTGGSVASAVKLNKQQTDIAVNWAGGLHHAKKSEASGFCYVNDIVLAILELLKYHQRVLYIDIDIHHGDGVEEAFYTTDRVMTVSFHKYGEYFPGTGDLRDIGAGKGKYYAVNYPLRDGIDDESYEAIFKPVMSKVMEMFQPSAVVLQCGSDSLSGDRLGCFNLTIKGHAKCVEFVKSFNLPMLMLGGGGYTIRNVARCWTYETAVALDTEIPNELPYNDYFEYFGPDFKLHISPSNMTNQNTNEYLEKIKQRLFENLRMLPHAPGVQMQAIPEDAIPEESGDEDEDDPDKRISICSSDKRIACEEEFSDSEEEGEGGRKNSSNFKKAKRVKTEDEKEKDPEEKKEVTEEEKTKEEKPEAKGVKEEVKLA
- Test name: Inhibition of human recombinant HDAC1 expressed in baculovirus infected High5 insect cells using Ac-Lys-Tyr-Lys(e-acetyl)-AMC as substrate incubated for 24 hrs measured after 30 mins by microplate reader based spectrophotometric analysis
Quantity: pIC50
# pIC50 is unitless: minus log10 of the molar concentration; print number only

                                smiles_repr  quantity  experimental_value
0  CC[N+]1=C(/C=C/C2=C3Oc4cc(O)cc(OCCCCCCCC(=O)NO)c4C=C3CCC2)C(C)(C)c2ccccc21.[I-]     pIC50                6.44

State, for Histone deacetylase 1 (Homo sapiens), measured pIC50 of the compound listed here: CC[N+]1=C(/C=C/C2=C3Oc4cc(O)cc(OCCCCCCCC(=O)O)c4C=C3CCC2)C(C)(C)c2ccccc21.[I-]
5.01
